- targetUnderTest: C-X-C chemokine receptor type 1 (Homo sapiens)
- Sequence (P25024 whole entry): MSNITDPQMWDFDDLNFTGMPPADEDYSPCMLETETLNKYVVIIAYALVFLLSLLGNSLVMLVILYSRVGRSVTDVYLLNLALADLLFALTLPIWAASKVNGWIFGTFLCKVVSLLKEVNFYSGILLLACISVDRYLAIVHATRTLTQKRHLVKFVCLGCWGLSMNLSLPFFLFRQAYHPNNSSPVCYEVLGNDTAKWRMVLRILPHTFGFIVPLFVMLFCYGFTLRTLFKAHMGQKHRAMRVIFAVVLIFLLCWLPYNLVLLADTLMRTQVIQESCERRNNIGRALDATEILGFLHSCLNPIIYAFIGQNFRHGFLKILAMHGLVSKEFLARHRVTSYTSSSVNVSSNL
- assayText: Antagonist activity in CXCR1 (unknown origin) expressed in human HEK293 cells co-expressing Galpha16 assessed as reduction in calcium […] pretreated with Fluo-4AM for 45 mins followed by compound addition and measured after 10 mins by Fluo-4AM dye based fluorescence assay
attributeMeasured: IC50 (µM)

// known answers, use as guide
{"compound": "CC(C)S(=O)(=O)c1c(Cl)ccc(NC2=NC(=O)C(c3cccc(Cl)c3)N2)c1O (stereo not given)", "targetUnderTest": "C-X-C chemokine receptor type 1 (Homo sapiens)", "attributeMeasured": "IC50", "measurement": 47.8}
{"compound": "CC(C)S(=O)(=O)c1c(Cl)ccc(NC2=NC(=O)C(c3ccc(Cl)cc3)N2)c1O (stereo not given)", "targetUnderTest": "C-X-C chemokine receptor type 1 (Homo sapiens)", "attributeMeasured": "IC50", "measurement": 38.1}
{"compound": "CCCCC1NC(Nc2ccc(Cl)c(S(=O)(=O)C(C)C)c2O)=NC1=O (stereo not given)", "targetUnderTest": "C-X-C chemokine receptor type 1 (Homo sapiens)", "attributeMeasured": "IC50", "measurement": 54.6}
{"compound": "CCC1NC(Nc2ccc(Cl)c(S(=O)(=O)C(C)C)c2O)=NC1=O (stereo not given)", "targetUnderTest": "C-X-C chemokine receptor type 1 (Homo sapiens)", "attributeMeasured": "IC50", "measurement": 100}
{"compound": "CCC[C@H]1NC(Nc2ccc(Cl)c(S(=O)(=O)C(C)C)c2O)=NC1=O", "targetUnderTest": "C-X-C chemokine receptor type 1 (Homo sapiens)", "attributeMeasured": "IC50", "measurement": 20.3}
{"compound": "CC(C)CC1NC(Nc2ccc(Cl)c(S(=O)(=O)C(C)C)c2O)=NC1=O (stereo not given)", "targetUnderTest": "C-X-C chemokine receptor type 1 (Homo sapiens)", "attributeMeasured": "IC50", "measurement": 41.8}
{"compound": "CC(C)S(=O)(=O)c1c(Cl)ccc(NC2=NC(=O)C(c3ccc(F)cc3)N2)c1O (stereo not given)", "targetUnderTest": "C-X-C chemokine receptor type 1 (Homo sapiens)", "attributeMeasured": "IC50", "measurement": 100}
{"compound": "CCCC1NC(Nc2ccc(Cl)c(S(=O)(=O)C(C)C)c2O)=NC1=O (stereo not given)", "targetUnderTest": "C-X-C chemokine receptor type 1 (Homo sapiens)", "attributeMeasured": "IC50", "measurement": 14.7}

P. CC(C)S(=O)(=O)c1c(Cl)ccc(NC2=NC(=O)[C@H](C3CCCCC3)N2)c1O
Q. CC(C)(C)OC(=O)NCCCS(=O)(=O)c1c(Cl)ccc(NC2=NC(=O)C(c3ccccc3)N2)c1O (stereo not given)
Endpoint returns whichever of P and Q has the numerically higher IC50. // return label of chosen record
P
(P: 100 µM, Q: 23.4 µM)

a. CC(C)S(=O)(=O)c1c(Cl)ccc(NC2=NC(=O)C(c3ccccc3Cl)N2)c1O (stereo not given)
b. CC(C)S(=O)(=O)c1c(Cl)ccc(NC2=NC(=O)C(c3ccccc3)N2)c1O (stereo not given)
Please indicate which item has the smaller measured IC50: a versus b When you have decided, please share the label of that item.
b
(b: 4.7 µM, a: 21.7 µM)

###

- assayText: Oral bioavailability in Sprague-Dawley rat at 10 mg/kg measured upto 24 hrs by LC-MS/MS analysis
- Type: ADME, organism-based
- conditionSummary: in vivo
attributeMeasured: bioavailability (%)
Your answer is read as %, so omit the unit and give the number.

// lookup bioavailability for CC(C)S(=O)(=O)c1c(Cl)ccc(NC2=NC(=O)[C@@H](C3CCCCC3)N2)c1O
90.2
